System: HepG2.2.15 cell
Experiment: Determination of cytotoxicity (MTT) in HepG2.2.15 cells
Conditions: read-out: CC50 (μM) in HepG2.2.15; MTT, 10th day of drug treatment
attribute measured: CC50

{"molecule": "CC1CC1(Cn1cnc2c(O)nc(N)nc21)OCP(=O)(O)O (single isomer, unassigned)", "attribute measured": "CC50", "obs value": "> 1000 µM"}

---

Consider the following molecules and their measured EC50 readings.
System: Hepatitis B Virus (HBV)
Assay: Inhibition of hepatitis B virus replication in HepG2.2.15 cells, quantitative PCR of culture medium
Format: cell-based
Details: Hepatitis B virus, 240 h; HepG2.2.15 cells, 10 days drug treatment, HBV DNA in medium by PCR
attribute measured: EC50

{"molecule": "C[C@@H]1C[C@]1(Cn1cnc2c(O)nc(N)nc21)OCP(=O)(O)O (single isomer, unassigned)", "test target": "Hepatitis B Virus (HBV)", "obs value": "> 10 µM"}
{"molecule": "CCC1CC1(Cn1cnc2cnc(N)nc21)OCP(=O)(O)O (centres unmarked)", "test target": "Hepatitis B Virus (HBV)", "obs value": "> 10 µM"}
{"molecule": "C[C@H]1C[C@]1(Cn1cnc2c(O)nc(N)nc21)OCP(=O)(O)O", "test target": "Hepatitis B Virus (HBV)", "obs value": "0.03 µM"}
{"molecule": "C[C@H]1C[C@]1(Cn1cnc2cnc(N)nc21)OCP(=O)(O)O", "test target": "Hepatitis B Virus (HBV)", "obs value": "1 µM"}
{"molecule": "CC[C@H]1C[C@]1(Cn1cnc2c(O)nc(N)nc21)OCP(=O)(O)O", "test target": "Hepatitis B Virus (HBV)", "obs value": "0.03 µM"}
{"molecule": "CC1CC1(Cn1cnc2c(N)ncnc21)OCP(=O)(O)O (centres unmarked)", "test target": "Hepatitis B Virus (HBV)", "obs value": "> 40 µM"}
{"molecule": "C[C@@H]1C[C@]1(Cn1cnc2c(Sc3ccc([N+](=O)[O-])cc3)nc(N)nc21)OCP(=O)(O)O (relative stereo)", "test target": "Hepatitis B Virus (HBV)", "obs value": "> 40 µM"}
{"molecule": "CCC1CC1(Cn1cnc2c(O)nc(N)nc21)OCP(=O)(O)O (single isomer, unassigned)", "test target": "Hepatitis B Virus (HBV)", "obs value": "> 40 µM"}
